Test system: RSV strain A2
Protocol Notes: RSV antiviral cytoprotection assay in Hep2 cells (96-well and 384-well format, Cell TiterGlo read-out)
Assay type: cell-based, Respiratory Syncytial Virus (RSV)
Test Parameters: human respiratory syncytial virus, HEp-2, 0.5 uM; RSV-induced cytopathic effect in Hep2 cells; calculated from fitted dose response curve, normalized to 0% and 100%
Measured Attribute: inhibition at 0.5 µM (%)
All answers are understood in %, so give the number only.

Solved cases (6 shown):
1) Cc1cn2nc([C@@H]3CCCCN3C(=O)c3ccccc3)cc2nc1N1CC[C@H](N)C1 [Compound 412] :: 100
2) CS(=O)(=O)Nc1ccc(Cl)cc1C(=O)N1CCCC[C@H]1c1cc2nc(N3CCC3)cc(N3CCN(CCF)CC3)n2n1 [Compound 166] :: 100
3) Cc1nc2cc([C@@H]3CCCCN3C(=O)c3ccccc3NS(C)(=O)=O)nn2c(N(C)C)c1C [Compound 100] :: 96
4) COc1cccc(C(=O)N2CCCC[C@H]2c2cc3nc(N4CC[C@H](N)C4)c(C)cn3n2)c1Cl [Compound 377] :: 99
5) Cc1cn2nc([C@@H]3CCCCN3C(=O)c3cc(Cl)ccc3NS(C)(=O)=O)cc2nc1N1CC[C@@H](N)C1 [Compound 232] :: 100
6) Cc1cn2nc([C@@H]3CCCCN3C(=O)c3ccc(-c4cccnc4)cc3)cc2nc1N1CC[C@H](N)C1 [Compound 408] :: 59

Below: the item to evaluate.
Input line: Provide the documented inhibition at 0.5 µM with RSV strain A2 as the system for Cc1cn2nc([C@@H]3CCCCN3C(=O)c3ccnn3CC(F)(F)F)cc2nc1N1CC[C@H](N)C1 [Compound 401]
Output line: 100
